Target: T1, human AMHRII (anti-Mullerian hormone receptor type 2) (human, UniProt Q16671 18-573)
T1 sequence (looked up): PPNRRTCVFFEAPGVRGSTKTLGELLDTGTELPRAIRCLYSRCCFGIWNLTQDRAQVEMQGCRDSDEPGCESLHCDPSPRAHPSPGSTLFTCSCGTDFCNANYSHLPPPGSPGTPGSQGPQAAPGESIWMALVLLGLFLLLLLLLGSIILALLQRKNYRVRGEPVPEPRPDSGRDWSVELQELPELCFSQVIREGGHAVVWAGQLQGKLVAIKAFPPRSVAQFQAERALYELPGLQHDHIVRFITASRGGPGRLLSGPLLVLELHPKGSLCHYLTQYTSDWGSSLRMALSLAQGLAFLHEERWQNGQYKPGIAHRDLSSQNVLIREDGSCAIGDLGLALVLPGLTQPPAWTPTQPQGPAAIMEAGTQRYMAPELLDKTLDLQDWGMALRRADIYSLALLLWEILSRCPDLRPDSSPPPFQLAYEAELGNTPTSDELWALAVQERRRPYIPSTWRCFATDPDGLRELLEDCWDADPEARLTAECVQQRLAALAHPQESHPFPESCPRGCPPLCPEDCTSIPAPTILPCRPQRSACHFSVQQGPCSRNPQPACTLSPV
Assay: cell-based or functional assay
experimentalReadout: ADCC reporter bioassay, EC50 (nM)
State just the number; it will be interpreted in nM.

Answered examples (3):
>>> measvalue("xi108F3D1E9 hIgG1 (antibody, V domains shown, Murine variable domains in human chimeric format, human IgG1; also called xi108F3D1E9 hlgG1; 108F3D1E9 (chimeric)) VH: DVQLQESGPGLVKPSQSLSLTCTVTGYSITSDFAWNWIRQFPGNKLEWMGYINFSGSTSYNPSLKSRISITRDTSKNQFFLQLNSVTTEDTATYYCAGSRYSWFAYWGQGTLVTVSA VL: DIVLTQSPASLAVSLGQRATISCRASESVDTYGNSFMHWYQQKPGQPPKLLIYRASNLESGIPARFSGSGSRTDFTLTINPVEADDVATYYCQQSNEDPYTFGGGTKLEIK")
0.19
>>> measvalue("xi35D4G3 hIgG1 (antibody, V domains shown, Murine variable domains in human chimeric format, human IgG1; also called 35D4G3 (chimeric)) VH: QVRLLQSGAALVKPGASAKMSCKASGYTFTDYWVSWVKQSHGKSLEWIGEIYPDNGITNFNEKFKGKATLTVDKSTRTAYMELSRLTSEDSAIYYCTRQRDYWGQGVMVTVSS VL: DVVLTQTPGSLSVTLGDQVSISCRSSQSLKYGDGYTYLEWYLQKPGQSPQLLFYGVSNRFSGVPDRFIGSGSGTDFTLKISRVEPEDLGVYYCFQATHDPNTFGTGTKLDLK")
0.25
>>> measvalue("xi103C5G10F9 hIgG1 (antibody, V domains shown, Murine variable domains in human chimeric format, human IgG1; also called 103C5G10F9 (chimeric)) VH: DVQLQESGPGLVKPSQSLSLTCTVTGYSITSDYAWNWIRQFPGNKLEWMGYISYSGSTSYNPSLKSRISITRDTSKNQFFLQLNSVTTEDTATYYCARSRYSWFDYWGQGTLVTVSA VL: DIVLTQSPTSLAVSLGQRATLSCSASESVDTYGNSFMHWYQQKPGQSPKLLIYRASSLESGIPARFSGSGSRTDFTLTINPVEAADVATYYCQQSNEDPYTFGGGTKLEIK")
0.39

Which ADCC reporter bioassay, EC50 reading was recorded for the binder xi94C4C3 hIgG1 (antibody, V domains shown, Murine variable domains in human chimeric format, human IgG1; also called xi94C4C3 hlgG1; 94C4C3 (chimeric)) VH: DVQLQESGPGLVKPSQSLSLTCTVTGYSITSDYAWNWIRQFPGNKLEWMGYISYSGSISYNPSLKSRISITRDTSKNQFFLQLNSVTTEDTATYYCARSRYSWFDYWGQGTLVTVSA VL: DIVLTQSPTSLAVSLGQRATLSCSASESVDTYGNSFMHWYQQKPGQPPKLLIYRASSLESGIPVRFSGSGSRTDFTLTINPVEAADVATYYCQQSNEDPYTFGGGTKLEIK ?
0.35
